# TGI values compiled below
System: HL-60(TB) leukemia
Assay: NCI tumour cell line growth inhibition, 48 h

Look over these answered cases.
COc1cc(/C=C2\CN(C)C/C(=C\c3cc(OC)c(OC)c(OC)c3)C2=O)cc(OC)c1OC    1.67 µM
NS(=O)(=O)c1ccc(NNc2c3ccccc3nc3ccccc23)cc1    19.9 µM
COC(=O)C(C(=O)C(=O)NC1=C(Cl)C(=O)c2ccccc2C1=O)c1csc(-n2nc(-c3ccccc3)cc2-c2ccccc2)n1 (configuration not stated)    > 100 µM
CC(=O)O[C@H]1C(=O)O[C@@H]2C[C@H]3C(C)=CC(=O)[C@@H](O)[C@]3(C)[C@H]3[C@@]4(O)OC[C@]32[C@@H]1[C@@H](C)[C@H]4O    0.4 µM
N=C1N(c2ccccc2)C(=O)C23CCCC2C13N1CCOCC1 (configuration not stated)    > 100 µM
O=[N+]([O-])c1ccc2c(c1)c(N=NC(=S)NC1CCCCC1)c(O)n2CN1CCOCC1    17.2 µM

Q: Request the reported TGI associated with "Cc1ccc(S(=O)(=O)/N=c2\ssc(Nc3ccccc3)c2Cl)cc1"
Result: > 50 µM

Q: Request the reported TGI associated with "Cc1cccc(N=Nc2c(C)nn(C(=O)CC(=O)Nc3ccccc3)c2C)c1"
Result: > 100 µM

Q: Request the reported TGI associated with "O=C(O)C1(C(=O)O)CC1(C(=O)O)C(=O)O"
Result: > 100 µM

----------
Test system: DU-145 prostate
Test: NCI tumour cell line growth inhibition, 48 h
MEASUREMENT LABEL: TGI

Look over these answered cases.
O=C1C2=Cc3ccccc3OC2(O)Oc2cc(O)ccc21 (stereo not given)    > 100 µM
Cn1cccc1-c1cc(-c2cccs2)[nH]c(=O)c1C#N    > 100 µM
N#Cc1c(-c2ccccc2)c(N=Nc2ccc(F)cc2)c(=O)n2c1[nH]c1ccccc12    > 100 µM
NC1CC(=O)c2c(Cl)sc(Cl)c21 (stereo not given)    16 µM

Next, consider the following compound.
Q: Request the reported TGI associated with "CCOC(=O)n1[nH]c(=O)n(-c2ccccc2)c1=O"
Result: > 100 µM

----------
# TGI values compiled below
Tested on: TK-10 renal
Test: NCI tumour cell line growth inhibition, 48 h

Look over these answered cases.
O=C(C#CP(=O)(O)c1ccccc1)c1ccccc1    > 100 µM
COC(=O)C1C(O)CCC2CN3CCc4c([nH]c5cccc(OC)c45)C3CC21 (stereo not given)    > 100 µM
COc1ccc(/C(C)=C(\c2ccc(Cl)cc2)c2ccc(OCCN3CCCC3)cc2)cc1F    8.13 µM

Q: Request the reported TGI associated with "O=c1cc(-c2ccc(Cl)cc2)[nH]c2ncccc12"
Result: > 100 µM

Q: Request the reported TGI associated with "CS(=O)(=O)c1nc(-c2cc3c(c(S(C)(=O)=O)n2)CCCC3)cc2c1CCCC2"
Result: > 100 µM

Q: Request the reported TGI associated with "O=C(Nc1n[nH]c2nc(-c3ccco3)ccc12)C1CC1"
Result: > 25 µM

Q: Request the reported TGI associated with "O=[n+]1c2c(n([O-])c3ccccc31)-c1cccc3cccc-2c13"
Result: > 100 µM

----------
Tested on: SF-295 CNS
Test: NCI tumour cell line growth inhibition, 48 h
MEASUREMENT LABEL: TGI (µM)
Kindly answer with a numeric value in µM, unit omitted.

CCN(CC)CCOc1ccc(/C(=C(\C)Cc2ccc(OC)cc2)c2ccc(OC(=O)NCc3ccccc3)cc2)cc1    3.3

Q: Request the reported TGI associated with "CN[C@]12CC3(C=CC(=O)C=C3)O[C@@]1(Cc1ccc(OC)cc1)N(C)C(=O)N2"
Result: 13.6

Q: Request the reported TGI associated with "C=C1C(=O)O[C@@H]2C(=O)[C@@H](C)[C@@H]3C=CC(=O)[C@@]3(C)[C@@H](OC(=O)/C(C)=C\C)[C@H]12"
Result: 27.4

Q: Request the reported TGI associated with "CCCCCCCC/C=C/CCCCCCCC1=NC(C)(C)CN1C(C)C"
Result: 3.07

----------
Tested on: CCRF-CEM leukemia
Test: NCI tumour cell line growth inhibition, 48 h
MEASUREMENT LABEL: TGI

Q: Request the reported TGI associated with COC(=O)C(C)NP(=O)(OCc1ccc(Cn2cnc3c(=O)[nH]c(N)nc32)cc1)Oc1ccccc1 (configuration not stated)
Result: > 100 µM

Q: Request the reported TGI associated with "CC(C)[Si](OC1=C(C(=O)Nc2ccccc2Cl)CCCCC1)(C(C)C)C(C)C"
Result: 12.3 µM

Q: Request the reported TGI associated with COC1=NC(NC2OCC(O)C(O)C2O)=C(NC(C)=O)CN1C (configuration not stated)
Result: > 100 µM

----------
Test system: LOX IMVI melanoma
Assay: NCI tumour cell line growth inhibition, 48 h
# TGI values compiled below

Look over these answered cases.
Cn1c(=O)c2c(no[n+]2[O-])n(C)c1=O    > 100 µM
CNNCc1ccc(C(=O)NC(C)C)cc1    > 500 µM
O=CN1CCN(C(=O)c2cc(Cl)cc(Cl)c2)C1=S    22.3 µM

Next, consider the following compound.
Q: Request the reported TGI associated with COC(=O)C1C(O)CCC2CN3CCc4c([nH]c5cccc(OC)c45)C3CC21 (stereo unspecified)
Result: > 100 µM

----------
Test system: MCF7 breast
Assay: NCI tumour cell line growth inhibition, 48 h
MEASUREMENT LABEL: TGI (µM)
Kindly answer with a numeric value in µM, unit omitted.

O=C(Nc1ccccc1)Nc1cccc(-n2cc(-c3ccncc3)c(-c3ccc(O)c(Cl)c3)n2)c1    17.8

Q: Request the reported TGI associated with "CCOC(=O)/C(=C/c1ccc([N+](=O)[O-])cc1)C(=O)c1ccccc1"
Result: 8.94

----------
# TGI values compiled below
Tested on: RPMI-8226 leukemia
Assay: NCI tumour cell line growth inhibition, 48 h

Q: Request the reported TGI associated with "COC(=O)C[C@@H]1C(C)(C)[C@@H]2O[C@@]34C[C@@H]2C(=O)[C@]1(C)[C@H]3CC[C@@]1(C)[C@H](c2ccoc2)OC(=O)C[C@]14O"
Result: > 100 µM

----------
Test system: SR leukemia
Assay: NCI tumour cell line growth inhibition, 48 h
MEASUREMENT LABEL: TGI

Q: Missing value: TGI, SR leukemia, entry CCOC(=O)C(Cc1ccccc1)NC(=O)c1ccc(N=NN(C)C)cc1 (stereo unspecified) . Fill in?
Result: > 100 µM

Q: Missing value: TGI, SR leukemia, entry "CNNCc1ccc(C(=O)NC(C)C)cc1" . Fill in?
Result: > 375 µM

Q: Missing value: TGI, SR leukemia, entry OC(c1cccnc1)C(F)(F)c1nc2ccccc2o1 (stereo unspecified) . Fill in?
Result: > 100 µM

Q: Missing value: TGI, SR leukemia, entry "CCOC(=O)n1[nH]c(=O)n(-c2ccccc2)c1=O" . Fill in?
Result: > 100 µM

Q: Missing value: TGI, SR leukemia, entry "O=C(NCc1ccccc1)c1cc2cc(O)c(O)cc2cn1" . Fill in?
Result: > 100 µM

Q: Missing value: TGI, SR leukemia, entry O=C1N=C(c2ccccc2)OC1C(=O)c1ccccc1 (stereo unspecified) . Fill in?
Result: > 100 µM

----------
Tested on: UACC-62 melanoma
Assay: NCI tumour cell line growth inhibition, 48 h
MEASUREMENT LABEL: TGI

Look over these answered cases.
Nc1ncnc2c1ncn2C1C=CC(CP(=O)(O)O)C1 (stereo unspecified)    > 100 µM
CN(/N=C/c1cccs1)c1ccc(Cl)cc1[N+](=O)[O-]    > 100 µM
O=C(NC1CCC(=O)N1C(=O)OCc1ccccc1)OCc1ccccc1 (stereo unspecified)    > 100 µM
OCCOCn1cc(Cn2ncc3c(SCc4ccccc4)ncnc32)nn1    > 100 µM
CC1(C)CCC2(C(=O)OC3OC(CO)C(O)C(O)C3O)CCC3(C)C(=CCC4C5(C)CCC(OC6OC(CO)C(O)C(O)C6O)C(C)(C)C5CCC43C)C2C1 (stereo unspecified)    > 25 µM

Q: Missing value: TGI, UACC-62 melanoma, entry "CCOc1ccccc1N=Nc1c(-c2ccccc2)nn(C(=O)CC(=O)Nc2cccc(Cl)c2)c1-c1ccccc1" . Fill in?
Result: > 100 µM

Q: Missing value: TGI, UACC-62 melanoma, entry "O=C(C#CP(=O)(O)c1ccccc1)c1ccccc1" . Fill in?
Result: > 100 µM

----------
Test system: IGROV1 ovarian
Assay: NCI tumour cell line growth inhibition, 48 h
# TGI values compiled below

Look over these answered cases.
CCOC(=O)C(Cc1ccccc1)NC(=O)c1ccc(N=NN(C)C)cc1 (centres undefined)    > 100 µM
CC(C)(C)[Si](C)(C)OCCCCC1CC2(S(=O)(=O)C3=CC=C=C=C3)ON1CC2S(=O)(=O)c1ccccc1 (centres undefined)    > 100 µM
Clc1cc(Cl)c(Cl)c(-c2nc(-c3cccnc3)cs2)c1    > 100 µM
COC(=O)CCC(NC(=O)C(C)NC(=O)COC1C(O)C(OC(=O)CCNc2c3ccccc3nc3cccc([N+](=O)[O-])c23)OC(OCc2ccccc2)C1NC(C)=O)C(N)=O (centres undefined)    > 10 µM
COc1ccc(/C(C)=C(\c2ccc(Cl)cc2)c2ccc(OCCN3CCCC3)cc2)cc1F    7.21 µM

Next, consider the following compound.
Q: Request the reported TGI associated with "Cc1cc(C)c(O)c(Cc2cccc(Cc3cc(C)cc(C)c3O)c2O)c1"
Result: > 100 µM
